EXPERIMENT_NOTES: qHTS Assay for Foot and Mouth Disease Virus Antivirals: Primary Screen against the MLPCN compound library; note: nearly all actives have a fitted effect of over 55% in size
RUN_CONDITIONS: FMDV antiviral cell-based qHTS; series mostly up to 57.9 µM
The whole screen tested about 410,000 compounds, of which about 2,000 (0.49%) were called active. About 8% were inconclusive and are not listed. Calls come from the whole dose curve; tested in HEK293 reporter line. This excerpt belongs to a sample that is enriched for actives.
Labels: active, inactive

MOLECULE: CN(C)c1cccc(F)c1C(=O)NC(=O)Nc1ccc(Cl)cc1
CATEGORY_LABEL: inactive
--
MOLECULE: Cc1cccc(C(=O)O/N=C(\N)c2ccccn2)c1
CATEGORY_LABEL: active
--
MOLECULE: CC1Cc2nc(SCC(=O)N3CCN(c4ccccc4)CC3)n(C)c(=O)c2S1 (stereo unspecified)
CATEGORY_LABEL: inactive
--
MOLECULE: CC(C)(C)c1ccc(C(=O)O/N=C(\N)c2ccccc2)cc1
CATEGORY_LABEL: inactive
--
MOLECULE: Cc1cccc(/C(N)=N/OC(=O)c2ccc(Cl)cc2Cl)c1
CATEGORY_LABEL: active
--
MOLECULE: CC(C)(C)c1ccc(C(=O)O/N=C(\N)c2ccccn2)cc1
CATEGORY_LABEL: inactive
--
MOLECULE: CO/N=C\c1cc(C(=O)c2ccc(Cl)cc2Cl)cn1C
CATEGORY_LABEL: inactive
--
MOLECULE: Cc1ccc(C(=O)O/N=C(\N)Cc2ccc([N+](=O)[O-])cc2)c(Cl)c1
CATEGORY_LABEL: inactive
--
MOLECULE: COc1cc(NC(=O)c2ccc3oc(=O)c(S(=O)(=O)c4ccccc4)cc3c2)cc(OC)c1
CATEGORY_LABEL: inactive
--
MOLECULE: CC1(Cc2ccc(C(F)(F)F)o2)C(=O)Nc2cc(-c3ccc(F)cc3F)ccc21 (stereo unspecified)
CATEGORY_LABEL: inactive
--
MOLECULE: Cn1ncc(S(=O)(=O)Cc2ccccc2)c(Cl)c1=O
CATEGORY_LABEL: active
